Counter-ions that a name gives are not always drawn.
melting point by entry:

Below, 2 compounds whose answers are already recorded.
* NCCC1(c2ccccc2)C2CC3CC(C2)CC1C3 (stereo not shown) (as salt: hydrochloride) | 278 to 281 °C (dec.)
* NCCC1(c2cccs2)C2CC3CC(C2)CC1C3 (stereo not shown) (as salt: hydrochloride) | 250.6 to 251.9 °C

Returns the measured melting point for the input compound. Input: NCCC1(Cc2ccccc2)C2CC3CC(C2)CC1C3 (stereo not shown) (as salt: hydrochloride)
195.8 to 196.8 °C

Returns the measured melting point for the input compound. Input: Cc1ccc(C2(CC(C)N)C3CC4CC(C3)CC2C4)cc1 (stereo not shown) (as salt: hydrochloride)
344 to 346 °C

----------
biological target: PCP site of the NMDA receptor; test: NMDA receptor binding: displacement of [3H]-MK-801 from rat cortical homogenates; conditions: rat cortical membranes, 5 nM [3H]-MK-801, 10 μM glutamate, 10 μM glycine; read-out: IC50, potency to displace [3H]-MK-801 from rat cortical homogenates
Counter-ions that a name gives are not always drawn.
experimental-readout: pIC50
// field semantics: pIC50 = negative decimal log of concentration (mol/L)

- NCCC1(c2ccccc2)C2CC3CC(C2)CC1C3 (stereo not shown) [Example 1, hydrochloride]: 5.96
- NCCC1(c2cccs2)C2CC3CC(C2)CC1C3 (stereo not shown) [Example 2, hydrochloride]: 5.57
- CC12CC3CC(C)(C1)CC(N)(C3)C2 [Memantine, reference compound]: 5.19

Now consider a different molecule.
Returns the measured pIC50 for the input molecule. Input: CNC1(c2ccccc2Cl)CCCCC1=O (stereo not shown) [Ketamine, reference compound]
5.19
